assay: chemical genetic growth profiling, strain panel (AID 1159580);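 further: tested at 20 µM; growth read once vehicle control cultures reached saturation at 30 °C; 1 = growth at the plate median or of vehicle wells; lower values mean less growth of the strain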; settings: S. cerevisiae deletion strains, growth OD, locus YDR159W, strain sac3
In all, about 5,500 compounds went through this assay and about 2,000 (36%) were called active. Not shown: some 18% with an inconclusive outcome. No stated cut-off is given here; in the data, active means normalized growth mostly below about 0.91 (no sharp cut-off); inconclusive means no clear call, values can overlap the other calls; inactive means mostly above about 0.92. This is one part of the list.
Respond using exactly one of the listed classes: true (1) (active), false (0) (inactive)

Given Oc1cc(O)c2c(c1)O[C@H](c1cc(O)c(O)c(O)c1)[C@H](O)C2 , state the outcome it received in this test.
true (1)

// repeat for C[C@H]1COc2c(N3CCN(C)CC3)c(F)cc3c(=O)c(C(=O)O)cn1c23 and report
false (0)

// repeat for CCCc1cc(C(N)=S)ccn1 and report
false (0)

// repeat for CC(=O)S[C@@H]1CC2=CC(=O)CC[C@]2(C)[C@H]2CC[C@@]3(C)[C@@H](CC[C@@]34CCC(=O)O4)C12 (stereo partly drawn) and report
false (0)

// repeat for CN(C)CCOC(c1ccc(Cl)cc1)c1ccccn1 (stereo not drawn) and report
false (0)

// repeat for O=c1cccc2ccc(O)c(O)c2c1O and report
true (1)

// repeat for Oc1cc(O)c2c(c1)O[C@H](c1ccc(O)c(O)c1)[C@H](O)C2 and report
false (0)

// repeat for C[n+]1c2cc(N)ccc2cc2ccc(N)cc21 and report
true (1)

// repeat for CCn1cc(C(=O)O)c(=O)c2cc(F)c(N3CCNC(C)C3)c(F)c21 (stereo not drawn) and report
false (0)

// repeat for CN1CCC(OC(c2ccccc2)c2ccccc2)CC1 and report
false (0)

// repeat for C[C@]12CCC(=O)C=C1C=CC1C2CC[C@@]2(C)C1CC[C@@]2(O)CCC(=O)O (stereo partly drawn) and report
false (0)

// repeat for Cn1c(=O)c2c(ncn2CC(O)CO)n(C)c1=O (stereo not drawn) and report
false (0)

// repeat for CCn1cc(C(=O)O)c(=O)c2cc(F)c(N3CCNCC3)nc21 and report
false (0)

Each recorded value in this set is attributed to PubChem BioAssay AID1159580.
